- Test system: Staphylococcus sp.
- EXPERIMENT SUMMARY: In vitro antibacterial evaluation: minimum inhibitory concentration (MIC), broth dilution method
- Type: cell-based
- APPLIED CONDITIONS: Staphylococcus aureus (GC 1131); 18 hours at 35° C.
- Text: […]
Listed here: items and their measured MIC Staphylococcus aureus (GC 1131).
Supply the numeric figure in µg/mL, leaving out any unit text.

Past entries and their recorded results:
INSERT INTO measurements (molecule, recorded_number) VALUES
  ('CC(c1ccccc1)C1NC(=O)CNC(=O)C(CO)NC(=O)C(C(O)C2CNC(=N)N2C2OC(CO)C(O)C(O)C2O)NC(=O)C(C(O)C2CNC(=N)N2)NC(=O)C(Cc2ccc(OC3OC(CO)C(OC4OC(CO)C(OCC=Cc5ccc(N(C)C)cc5)C(O)C4O)C(O)C3O)cc2)NC1=O (centres unmarked) [Example 243a]', 32),
  ('CC(c1ccccc1)C1NC(=O)CNC(=O)C(CO)NC(=O)C(C(O)C2CNC(=N)N2C2OC(CO)C(O)C(O)C2O)NC(=O)C(C(O)C2CNC(=N)N2)NC(=O)C(Cc2ccc(OC3OC(CO)C(OC4OC(COCC=Cc5ccccc5)C(O)C(O)C4O)C(O)C3O)cc2)NC1=O (centres unmarked)', 8),
  ('COc1ccc(COCC2OC(OC3C(CO)OC(Oc4ccc(CC5NC(=O)C(C(C)c6ccccc6)NC(=O)CNC(=O)C(CO)NC(=O)C(C(O)C6CNC(=N)N6C6OC(CO)C(O)C(O)C6O)NC(=O)C(C(O)C6CNC(=N)N6)NC5=O)cc4)C(O)C3O)C(O)C(O)C2O)cc1OCc1ccccc1 (centres unmarked)', 2),
  ('CC(c1ccccc1)C1NC(=O)CNC(=O)C(CO)NC(=O)C(CC2CNC(=N)N2C2OC(CO)C(O)C(O)C2O)NC(=O)C(CC2CNC(=N)N2)NC(=O)C(Cc2ccc(OC3OC(CO)C(OC4OC(COCc5ccc(OCc6ccccc6)cc5)C(O)C(O)C4O)C(O)C3O)cc2)NC1=O (centres unmarked)', 8),
  ('CC=C(C)C(=O)OC1C(CO)OC(OC2C(CO)OC(Oc3ccc(CC4NC(=O)C(C(C)c5ccccc5)NC(=O)CNC(=O)C(CO)NC(=O)C(C(O)C5CNC(=N)N5C5OC(CO)C(O)C(O)C5O)NC(=O)C(C(O)C5CNC(=N)N5)NC4=O)cc3)C(O)C2O)C(O)C1O (centres unmarked) [Example 278b]', 8);

// moving on: another record for MIC Staphylococcus aureus (GC 1131)
The reported MIC Staphylococcus aureus (GC 1131) of the molecule CC(c1ccccc1)C1NC(=O)CNC(=O)C(CO[Si](C)(C)C(C)(C)C)NC(=O)C(C(O)C2CNC(=N)N2C2OC3COC(C)(C)OC3C3OC(C)(C)OC32)NC(=O)C(C(O)C2CNC(=N)N2)NC(=O)C(Cc2ccc(O)cc2)NC1=O (centres unmarked) was 32

====

Listed here: items and their measured MIC Enterococcus faecium (GC 4557).
- Test system: Enterococcus sp.
- EXPERIMENT SUMMARY: In vitro antibacterial evaluation: minimum inhibitory concentration (MIC), broth dilution method
- Type: cell-based
- APPLIED CONDITIONS: strain GC 4557
Numbered stars: 1 amine (or outer) side, 2 acyl side, 3 side chain; on linkers, the order of the positions; unused ones are H or OH. Square brackets hold non-standard residues; d marks the D form. Peptide text beside a SMILES is read from it. * marks the point of attachment. ξ: configuration not given here. X1 = N=C1NCC(C(O)C(N[*:1])C(=O)[*:2])N1C1OC(CO)C(O)C(O)C1O; ξEnduracididine(βξ-OH,4'ξ) = N=C1NCC(C(O)C(N)C(=O)O)N1; X2 = OCC1OC(OC2C(CO)OC(*)C(O)C2O)C(O)C(O)C1O; Diphenylacetyl = O=C(C(c1ccccc1)c1ccccc1)*; ξPhe(βξ-Me) = CC(c1ccccc1)C(N)C(=O)O
Supply the numeric figure in µg/mL, leaving out any unit text.

Past entries and their recorded results:
INSERT INTO assay_data (molecule, assay_target, recorded_number) VALUES
  ('CCOc1cc(C2OCC3OC(OC4C(CO)OC(Oc5ccc(CC6NC(=O)C(C(C)c7ccccc7)NC(=O)CNC(=O)C(CO)NC(=O)C(C(O)C7CNC(=N)N7C7OC(CO)C(O)C(O)C7O)NC(=O)C(C(O)C7CNC(=N)N7)NC6=O)cc5)C(O)C4O)C(O)C(O)C3O2)ccc1OC (stereo not shown)', 'Enterococcus sp.', 16),
  ('CC(C)=CCCC(C)=CCN=C1NCC(C(O)C2NC(=O)C(C(O)C3CNC(=N)N3)NC(=O)C(Cc3ccc(OC4OC(CO)C(OC5OC6COC7(OC6C(O)C5O)C5CC6CC(C5)CC7C6)C(O)C4O)cc3)NC(=O)C(C(C)c3ccccc3)NC(=O)CNC(=O)C(CO)NC2=O)N1C1OC(CO)C(O)C(O)C1O (stereo not shown)', 'Enterococcus sp.', 2),
  ('CC(c1ccccc1)C1NC(=O)CNC(=O)C(CO)NC(=O)C(C(O)C2CNC(=N)N2C2OC(CO)C(O)C(O)C2O)NC(=O)C(C(O)C2CNC(=N)N2)NC(=O)C(Cc2ccc(OC3OC(CO)C(OC4OC(COC(=O)C(c5ccccc5)c5ccccc5)C(O)C(O)C4O)C(O)C3O)cc2)NC1=O (stereo not shown) [Example 96c]', 'Enterococcus sp.', 1),
  ('CCOc1cc(C2OCC3OC(OC4C(CO)OC(Oc5ccc(CC6NC(=O)C(C(C)c7ccccc7)NC(=O)CNC(=O)C(CO)NC(=O)C(C(O)C7CNC(=N)N7C7OC(CO)C(O)C(O)C7O)NC(=O)C(C(O)C7CNC(=N)N7)NC6=O)cc5)C(O)C4O)C(O)C(O)C3O2)ccc1[N+](=O)[O-] (stereo not shown)', 'Enterococcus sp.', 8);

The reported MIC Enterococcus faecium (GC 4557) of the molecule CC(c1ccccc1)C1NC(=O)CNC(=O)C(COC(=O)C(c2ccccc2)c2ccccc2)NC(=O)C(C(O)C2CNC(=N)N2C2OC(CO)C(O)C(O)C2O)NC(=O)C(C(O)C2CNC(=N)N2)NC(=O)C(Cc2ccc(OC3OC(CO)C(OC4OC(CO)C(O)C(O)C4O)C(O)C3O)cc2)NC1=O (stereo not drawn) [Example 96a] (cyclo(G[ξPhe(βξ-Me)]Y(X2)[ξEnduracididine(βξ-OH,4'ξ)][X1]S(Diphenylacetyl)); configuration not given here) was 32

====

- System: Enterococcus sp.
- EXPERIMENT SUMMARY: In vitro antibacterial evaluation: minimum inhibitory concentration (MIC), broth dilution method
- Assay type: cell-based
- APPLIED CONDITIONS: strain GC 2242
- Text: […]
MEASURED QUANTITY: MIC Enterococcus faecalis (GC 2242)
Your reply should be a number followed by the unit it is expressed in.

Past entries and their recorded results:
INSERT INTO measurements (molecule, result) VALUES
  ('CC(C)=CCCC(C)=CCOc1ccc(C2OCC3OC(OC4C(CO)OC(Oc5ccc(CC6NC(=O)C(C(C)c7ccccc7)NC(=O)CNC(=O)C(CO)NC(=O)C(C(O)C7CNC(=N)N7C7OC(CO)C(O)C(O)C7O)NC(=O)C(C(O)C7CNC(=N)N7)NC6=O)cc5)C(O)C4O)C(O)C(O)C3O2)cc1 (stereo not drawn)', '8 µg/mL'),
  ('Cc1cc(C2OCC3OC(OC4C(CO)OC(Oc5ccc(CC6NC(=O)C(C(C)c7ccccc7)NC(=O)CNC(=O)C(CO)NC(=O)C(C(O)C7CNC(=N)N7C7OC(CO)C(O)C(O)C7O)NC(=O)C(C(O)C7CNC(=N)N7)NC6=O)cc5)C(O)C4O)C(O)C(O)C3O2)ccc1[N+](=O)[O-] (stereo not drawn)', '16 µg/mL');

// moving on: another record for MIC Enterococcus faecalis (GC 2242)
The reported MIC Enterococcus faecalis (GC 2242) of the molecule CC(c1ccccc1)C1NC(=O)CNC(=O)C(CO)NC(=O)C(C(O)C2CNC(=N)N2C2OC(CO)C(O)C(O)C2O)NC(=O)C(C(O)C2CNC(=N)N2)NC(=O)C(Cc2ccc(OC3OC(CO)C(OC4OC5COC(c6ccc(S(C)(=O)=O)cc6)OC5C(O)C4O)C(O)C3O)cc2)NC1=O (stereo not drawn) was 64 µg/mL

====

- Type: in vivo
- APPLIED CONDITIONS: mice, 20 mg/kg intravenously daily for 9 days, serum on day 10
MEASURED QUANTITY: Clinical Chemistry (Day 10) % of Control, AST

Past entries and their recorded results:
INSERT INTO results (molecule, result) VALUES
  ('CC(c1ccccc1)C1NC(=O)CNC(=O)C(CO)NC(=O)C(C(O)C2CNC(=N)N2C2OC(CO)C(O)C(O)C2O)NC(=O)C(C(O)C2CNC(=N)N2)NC(=O)C(Cc2ccc(OC3OC(CO)C(OC4OC5COC6(OC5C(O)C4O)C4CC5CC(C4)CC6C5)C(O)C3O)cc2)NC1=O (centres unmarked)', '+205%'),
  ('CC(c1ccccc1)C1NC(=O)CNC(=O)C(CO)NC(=O)C(C(O)C2CNC(=N)N2C2OC(CO)C(O)C(O)C2O)NC(=O)C(C(O)C2CNC(=N)N2)NC(=O)C(Cc2ccc(OC3OC(CO)C(OC4OC5COC(c6ccccc6)OC5C(O)C4O)C(O)C3O)cc2)NC1=O (centres unmarked)', '+87%'),
  ('CC(c1ccccc1)C1NC(=O)CNC(=O)C(CO)NC(=O)C(C(O)C2CNC(=N)N2C2OC(CO)C(O)C(O)C2O)NC(=O)C(C(O)C2CNC(=N)N2)NC(=O)C(Cc2ccc(OC3OC(CO)C(OC4OC5COC(Cc6ccccc6)OC5C(O)C4O)C(O)C3O)cc2)NC1=O (centres unmarked)', '+340%');

The reported Clinical Chemistry (Day 10) % of Control, AST of the molecule CC(C)CC(=O)OCC1OC(OC2C(CO)OC(Oc3ccc(CC4NC(=O)C(C(C)c5ccccc5)NC(=O)CNC(=O)C(CO)NC(=O)C(CC5CNC(=N)N5C5OC(CO)C(O)C(O)C5O)NC(=O)C(CC5CNC(=N)N5)NC4=O)cc3)C(O)C2O)C(O)C(O)C1O (centres unmarked) [Example 277c] was +253%

The reported Clinical Chemistry (Day 10) % of Control, AST of the molecule CC(c1ccccc1)C1NC(=O)CNC(=O)C(CO)NC(=O)C(C(O)C2CN(Cc3ccc(-c4ccccc4)cc3)C(=N)N2C2OC(CO)C(O)C(O)C2O)NC(=O)C(C(O)C2CNC(=NCc3ccc(-c4ccccc4)cc3)N2Cc2ccc(-c3ccccc3)cc2)NC(=O)C(Cc2ccc(OC3OC(CO)C(OC4OC(CO)C(O)C(O)C4O)C(O)C3O)cc2)NC1=O (centres unmarked) was 147%
